Assign normalized growth to each entry below.
assay: chemical genetic growth profiling, strain panel (AID 1159580);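 note: tested at 20 µM; growth read once vehicle control cultures reached saturation at 30 °C; 1 = growth at the plate median or of vehicle wells; lower values mean less growth of the strain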; conditions: S. cerevisiae deletion strains, growth OD, locus YBL061C, strain skt5, hits give low values
The whole screen tested about 5,500 compounds, of which about 2,000 (36%) were called active. Not shown: some 18% with an inconclusive outcome. This is one part of the list.
Give bare numbers.

Consider the reported normalized growth for these compounds:
{"cpd-smiles": "COc1cc(C(=O)O[C@H]2CC[C@@]3(C)[C@@H]4CC[C@H]5[C@]6(O)C[C@H](O)[C@@]7(O)[C@@H](CN8C[C@@H](C)CC[C@H]8[C@@]7(C)O)[C@]6(O)C[C@@]53O[C@]24O)cc(OC)c1OC", "val": 0.994}
{"cpd-smiles": "O=C(CNC(=O)c1ccc(Cl)cc1)NO", "val": 1.01}

// next item, normalized growth requested
Prompt: For the compound shown here, "O=c1[nH]cc(F)c(=O)[nH]1" , give the reported normalized growth.
Completion: 0.689

All figures here come from PubChem BioAssay AID1159580.
